- System: HEK-293T
- assay.procedure: Incucyte cell viability with HEK293T; also: unitless GR value; below 1 slowed growth and below 0 cell loss
- Assay type: toxicity, cell-based
- measurement.setup: human, 24 h, 10 µM, compound concentration 10 uM, replicate number 2
hey, just use 1 if measured Growth Rate is less than -0.4, otherwise -1

A selection of reference data follows.
[[record]]
molecule = "Cc1nc(Nc2cnn(C3CCNCC3)c2)nc2c1N(C)C(=O)c1cc3ccccc3cc1N2C"
target_of_assay = "HEK-293T"
assigned_category = -1

[[record]]
molecule = "N[C@@H]1CCCC[C@H]1Oc1ccc2ncc(-c3cc4ccccc4o3)n2n1"
target_of_assay = "HEK-293T"
assigned_category = 1

[[record]]
molecule = "O=C(Nc1c[nH]nc1-c1nc2cc(CN3CCOCC3)ccc2[nH]1)NC1CC1"
target_of_assay = "HEK-293T"
assigned_category = -1

[[record]]
molecule = "O=C(Nc1cccc(C(F)(F)F)c1)c1cc(Cl)ccc1O"
target_of_assay = "HEK-293T"
assigned_category = -1

[[record]]
molecule = "O=C(O)C(F)(F)F.O=C1NC(=O)/C(=C/c2c[nH]c(=O)c(-c3ccc(N4CCNCC4)nc3)c2)S1"
target_of_assay = "HEK-293T"
assigned_category = -1


Item "CC(C)(C)NC(=O)c1cncn1C1CCN(c2ccc(-c3nnc(C(F)(F)F)o3)cn2)CC1" : Growth Rate beneath -0.4, strictly?
-1

What do you get for CC(=O)N1CCN(c2ccc(OCC3COC(Cn4ccnc4)(c4ccc(Cl)cc4Cl)O3)cc2)CC1 (centres undefined) ?
-1

Next up: "Cc1cc(Cn2c(N3CC4(CNC4)C3)nc3c(N4CCN(C)CC4)cc(Cl)cc32)cc(C)c1F"
1
